Below, each of the compounds is paired with its reported EC50 value.
test system: SARS-CoV; test: microbe, parasite or virus in culture; type: cell-based, SARS-CoV Urbani strain; conditions: Severe acute respiratory syndrome coronavirus, Vero C1008

- COMPOUND: "C[C@H](c1cccc2ccccc12)N1CCC(C(=O)NCc2ccc3c(c2)OCO3)CC1"
  EC50: "3 µM"
- COMPOUND: "CNCc1ccc(C)c(C(=O)N[C@H](C)c2cccc3ccccc23)c1"
  EC50: "5.2 µM"
- COMPOUND: "COc1cccc(CNC(=O)C2CCN([C@@H](C)c3ccc4ccccc4c3)CC2)c1"
  EC50: "12 µM"
- COMPOUND: "Cc1ccc(CNC(=O)OC(C)(C)C)cc1C(=O)N[C@H](C)c1cccc2ccccc12"
  EC50: "> 50 µM"
- COMPOUND: "Cc1ccccc1C(=O)N[C@H](C)c1ccc2ccccc2c1"
  EC50: "> 50 µM"

Input: Quick one: EC50 for Cc1ccccc1C(=O)NC(C)c1ccc2ccccc2c1 (racemic) ?
Output: > 50 µM

Input: Query: EC50; subject: C[C@@H](NC(=O)c1ccccc1Cl)c1ccc2ccccc2c1
Output: > 50 µM

Input: State the recorded EC50 for this entry: Cc1ccccc1C(=O)N[C@H](C)c1cccc2ccccc12
Output: 10 µM

Input: What measured EC50 goes with C[C@@H](c1cccc2ccccc12)N1CCC(C(=O)NCc2ccc3c(c2)OCO3)CC1 ?
Output: 3 µM
